test: Solubility of the compound at pH 6.8; assay type: physicochemical; details: buffer
Reported log10 solubility values follow for various molecules
All values: base-10 log of solubility in µg/mL.

smiles-string	reported-property	test-result
CCN(CC)CCNc1c(-c2ccccc2)c(C)c(C#N)c2nc(C(C)(C)C)nn12	log10 solubility	0.30
CCc1nc2c(C#N)c(C)c(-c3ccccc3)c(N3CC[C@H](N(C)C)C3)n2n1	log10 solubility	2.36
Cc1nc2c(C#N)c(C)c(-c3ccccc3)c(N3CC[C@H](N(C)C)C3)n2n1	log10 solubility	2.58
Cc1c(-c2ccccc2)c(N2CC[C@H](N(C)C)C2)n2nc(C3CC3)nc2c1C#N	log10 solubility	1.76
Cc1c(-c2ccccc2)c(N2CC[C@H](N(C)C)C2)n2nc(C(C)(C)CO)nc2c1C#N	log10 solubility	2.15

Task item: Endpoint output: log10 solubility of CCCCc1nc2c(C#N)c(C)c(-c3ccccc3)c(N3CC[C@H](N(C)C)C3)n2n1 . Value?
Reply: 1.52

----------
Reported solubility values follow for various compounds
assay: Solubility of the compound at pH 6.8; assay type: physicochemical; details: buffer

As a guide, the following entries are already answered.
smiles-string	solubility
OC(Cn1cncn1)(Cn1cncn1)c1ccc(F)cc1F	> 2000 µg/mL
Cc1c(-c2ccccc2)c(N2CC[C@H](N(C)C)C2)n2nc(C(C)(C)C)cc2c1C#N	< 2 µg/mL

Now look at this entry.
Task item: Endpoint output: solubility of Cc1c(-c2ccccc2)c(N2CC[C@H](N(C)C)C2)n2nc(C(C)(C)COCc3ccccc3)nc2c1C#N . Value?
Reply: < 3 µg/mL
